Test system: OVCAR-5 ovarian
Assay: NCI tumour cell line growth inhibition, 48 h
Where a SMILES comes first, the peptide text is derived from it.
Each entry below carries its recorded TGI.

| Compound | System Name | TGI |
| --- | --- | --- |
| Cc1cn(C2CCN(CC3COC(C)(C)O3)O2)c(=O)[nH]c1=O (centres undefined) | OVCAR-5 ovarian | > 100 µM |
| Cc1ccc(C(=O)Nc2ncn(C3CC(O)C(CO)O3)c(=O)n2)cc1 (centres undefined) | OVCAR-5 ovarian | > 100 µM |
| CC1(C)CCCCCCCCCC2CC2CCC(C)(C)C1=O (centres undefined) | OVCAR-5 ovarian | 40 µM |
| CCOC(=O)C1(N)CC1 | OVCAR-5 ovarian | > 100 µM |
| CCCc1cn2c(/C=N/N=C(N)N)c(-c3ccc(Cl)c([N+](=O)[O-])c3)nc2s1 | OVCAR-5 ovarian | 2.89 µM |
| Cn1cc(-c2nnc(-c3ccc(Cl)cc3)[nH]c2=O)c2ccccc21 | OVCAR-5 ovarian | > 100 µM |
| O=c1[nH]nc(Cc2ccccc2)n1/N=C/c1ccc([N+](=O)[O-])cc1 | OVCAR-5 ovarian | > 100 µM |
| CCCCCCCCCCOCCOCCOCCOCCCCC(O)CCCCCCCC1=C[C@H](C)OC1=O (some centres undefined) | OVCAR-5 ovarian | 30.6 µM |
| COc1ccc(Cn2cc3c(c2-c2cc(OC)c(OC)c(OC)c2)CCc2c(CO)noc2-3)cc1 | OVCAR-5 ovarian | > 82.3 µM |
| Cc1cc(S(=O)(=O)NC(=NCCc2ccccc2)NN)c(S)cc1Cl | OVCAR-5 ovarian | 36.8 µM |
| CC(C)C(Sc1nc(-c2ccccc2)c(-c2ccccc2)[nH]1)c1n[nH]c(=S)n1-c1ccccc1 (centres undefined) | OVCAR-5 ovarian | 95 µM |
| CN1CC2=C(NC(=S)NC2c2ccccc2Cl)/C(=C/c2ccccc2Cl)C1 (centres undefined) | OVCAR-5 ovarian | > 100 µM |
| O=C(CN=C(CN(c1ccccc1)c1ccccc1)Oc1ccc(Cl)cc1Cl)n1ccnc1 | OVCAR-5 ovarian | > 100 µM |
| COC(=O)[C@@H](C)C[C@H](Cc1ccccc1)NC(=O)c1csc([C@@H](C[C@H](C(C)C)N(C)C(=O)[C@@H](NC(=O)[C@H]2CCCN2C)C2CC2)OC(C)=O)n1 | OVCAR-5 ovarian | > 25 µM |
| CC(=O)Nc1cc2nc3n(c2cc1C)CCC3OC(C)=O (centres undefined) | OVCAR-5 ovarian | > 100 µM |
| CCOc1cccc(-c2cc(=O)c3cc4c(cc3[nH]2)OCO4)c1 | OVCAR-5 ovarian | > 100 µM |
| O=C1C=C(c2ccccc2)O/C1=C\C(=O)c1ccc(Cl)cc1 | OVCAR-5 ovarian | 88 µM |
| O=c1c(-c2ccccc2)c(SCCN2CCOCC2)n(-c2ccccc2)c(=S)n1-c1ccccc1 | OVCAR-5 ovarian | > 100 µM |
| CN(C)CCOc1ccccc1NC1=C(Cl)C(=O)C(Nc2ccccc2OCCN(C)C)=C(Cl)C1=O | OVCAR-5 ovarian | > 38.6 µM |
| C=C1C(=O)O[C@H]2[C@H]1CC/C(CNC(=O)/C=C/c1ccccc1F)=C\CC[C@@]1(C)O[C@@H]21 | OVCAR-5 ovarian | 5.15 µM |
| O=[N+]([O-])C(/C=C(\Cl)[N+](=O)[O-])=C(N1CCCCC1)N1CCCCC1 | OVCAR-5 ovarian | > 100 µM |
| CCCN(CCC)c1ccc(C=O)c(C)c1 | OVCAR-5 ovarian | > 100 µM |
| O=c1[nH]c2c(c(=O)[nH]1)C(c1ccc([N+](=O)[O-])cc1)c1c([nH]c(=O)[nH]c1=O)O2 | OVCAR-5 ovarian | > 100 µM |
| CCC(C)C(NC(=O)C(CC(C)C)NC(=O)CNC(=O)C(NC(=O)C1CCCN1C(=O)C(CC(C)C)NC(=O)C(N)Cc1ccccc1)C(C)CC)C(=O)NC(CC(C)C)C(N)=O (centres undefined) (H-FLPIGLIL-NH2; configuration not given here) | OVCAR-5 ovarian | > 75 µM |
| COc1cc(C2c3cc4c(cc3OC(NCCO)C2C)OCO4)cc(OC)c1O (centres undefined) | OVCAR-5 ovarian | > 100 µM |
| Cc1c2c(nn1-c1ccc(S(=O)(=O)NC(=S)NC(=O)c3ccccc3)cc1)-c1ccccc1CC2 | OVCAR-5 ovarian | > 100 µM |
| CC1=CC(=O)N(n2c(Cc3ccc(Cl)cc3)n[nH]c2=O)C1=O | OVCAR-5 ovarian | > 100 µM |
| CC(=O)OCC1OC(n2ncc(=O)[nH]c2=O)C(OC(C)=O)C1OC(C)=O (centres undefined) | OVCAR-5 ovarian | > 100 µM |
| CCOC(=O)C(NC(=O)CC)(Nc1ccc(F)cc1F)C(F)(F)F (centres undefined) | OVCAR-5 ovarian | > 100 µM |
| [Cu+2].[NH-]C(CC(=O)O)C(=O)O.[NH-]C(CC(=O)O)C(=O)O (centres undefined) | OVCAR-5 ovarian | > 100 µM |
| N#Cc1c(-c2ccc(Cl)cc2)c2c([nH]c1=O)-c1cc([N+](=O)[O-])ccc1CCC2 | OVCAR-5 ovarian | 37.6 µM |
| O=C(O)Cc1ccc(N=Nc2c(O)c(C(=O)O)cc3ccccc23)cc1 | OVCAR-5 ovarian | > 100 µM |
| O=C(O)c1cn(C2CC2)c2cc(N3CCN(Cc4c(O)ccc5ccccc45)CC3)c(F)cc2c1=O | OVCAR-5 ovarian | > 100 µM |
| O=C(O)CCN(CCCN(CCC(=O)O)CCC(=O)O)CCC(=O)O | OVCAR-5 ovarian | > 100 µM |
| COC(=O)/N=[N+](\[O-])C(c1ccccc1)c1ccccc1 | OVCAR-5 ovarian | > 100 µM |
| CN1CCN(Cc2nc3c(s2)CCc2sccc2-3)CC1 | OVCAR-5 ovarian | > 100 µM |
| CCN(CCO)CCNc1ccc(C)c2sc3ccccc3c(=O)c12 | OVCAR-5 ovarian | 12.5 µM |
| Cc1ccc(OCCOCCOCCOCCOCCOc2ccc(C)n(O)c2=S)c(=S)n1O | OVCAR-5 ovarian | > 100 µM |
| CC(C)=NNC(=S)NC12CC3CC(CC(C3)C1)C2 | OVCAR-5 ovarian | > 100 µM |

Numbers sourced from PubChem BioAssay (NCI).
